- METHOD DESCRIPTION: In vivo oral administration and pharmacokinetics
- Set-up: species or system rats
- APPLIED CONDITIONS: male, Sprague Dawley, rat, plasma, po, 100 mg/kg

{"columns": ["INPUT SMILES", "READING UNIT", "half-life"],
 "data": [
  ["COc1cc(/C=C/C(=O)CC(=O)/C=C/c2ccc(O)c(OC)c2)ccc1O", "min", 54]
]}

====

- METHOD DESCRIPTION: In vivo oral administration and pharmacokinetics
- Parameters: species or system rats
- APPLIED CONDITIONS: male, Sprague Dawley, rat, plasma, po, 100 mg/kg

{"columns": ["INPUT SMILES", "Tmax [h]"],
 "data": [
  ["COc1cc(/C=C/C(=O)CC(=O)/C=C/c2ccc(O)c(OC)c2)ccc1O", 1]
]}

====

- METHOD DESCRIPTION: In vivo oral administration and pharmacokinetics
- Parameters: species or system rats
- APPLIED CONDITIONS: male, Sprague Dawley, rat, plasma, po, 100 mg/kg
ATTRIBUTE MEASURED: Cmax (ng/mL)

{"columns": ["INPUT SMILES", "ATTRIBUTE MEASURED", "VALUE"],
 "data": [
  ["COc1cc(/C=C/C(=O)CC(=O)/C=C/c2ccc(O)c(OC)c2)ccc1O", "Cmax", 11000]
]}
